Reference for the values: ChEMBL document CHEMBL4477250

# subject.of.test: Cytochrome P450 1A2 (Homo sapiens, UniProt P05177)
# Sequence (P05177 whole entry): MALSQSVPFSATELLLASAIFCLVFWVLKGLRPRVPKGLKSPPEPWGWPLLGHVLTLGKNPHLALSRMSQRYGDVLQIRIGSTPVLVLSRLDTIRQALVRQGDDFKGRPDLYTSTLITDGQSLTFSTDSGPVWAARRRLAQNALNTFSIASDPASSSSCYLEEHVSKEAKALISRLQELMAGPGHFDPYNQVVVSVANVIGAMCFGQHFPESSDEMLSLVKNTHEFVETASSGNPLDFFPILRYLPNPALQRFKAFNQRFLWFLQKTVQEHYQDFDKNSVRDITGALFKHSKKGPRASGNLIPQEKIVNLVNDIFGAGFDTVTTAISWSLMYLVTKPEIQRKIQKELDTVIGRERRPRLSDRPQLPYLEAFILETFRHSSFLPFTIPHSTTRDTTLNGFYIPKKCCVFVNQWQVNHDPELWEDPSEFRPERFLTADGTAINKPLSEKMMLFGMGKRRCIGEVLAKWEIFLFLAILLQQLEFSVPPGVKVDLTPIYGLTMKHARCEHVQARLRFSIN
# test.description: Inhibition of recombinant CYP1A2 (unknown origin)
# Assay type: ADME
measurement.label: IC50

Query block: Endpoint output: IC50 of O=C(O)c1ccc(-c2c(/C=C/c3ccc4ccccc4n3)nc3c(N4CCOCC4)ccnn23)cc1 . Value?
Result block: > 10 µM

###

# test.description: Clearance in rat at 10 mg/kg
# Format: ADME, organism-based
# test.parameters: in vivo
measurement.label: clearance (mL/min/kg)
Please respond with the number in mL/min/kg and leave the unit unwritten.

Query block: I would be grateful if you could share the reported clearance for O=C(O)c1ccc(-c2c(/C=C/c3ccc4ccccc4n3)nc3c(N4CCOCC4)ccnn23)cc1 .
Result block: 3.3

###

# subject.of.test: Cytochrome P450 2D6 (Homo sapiens, UniProt P10635)
# Sequence (P10635 whole entry): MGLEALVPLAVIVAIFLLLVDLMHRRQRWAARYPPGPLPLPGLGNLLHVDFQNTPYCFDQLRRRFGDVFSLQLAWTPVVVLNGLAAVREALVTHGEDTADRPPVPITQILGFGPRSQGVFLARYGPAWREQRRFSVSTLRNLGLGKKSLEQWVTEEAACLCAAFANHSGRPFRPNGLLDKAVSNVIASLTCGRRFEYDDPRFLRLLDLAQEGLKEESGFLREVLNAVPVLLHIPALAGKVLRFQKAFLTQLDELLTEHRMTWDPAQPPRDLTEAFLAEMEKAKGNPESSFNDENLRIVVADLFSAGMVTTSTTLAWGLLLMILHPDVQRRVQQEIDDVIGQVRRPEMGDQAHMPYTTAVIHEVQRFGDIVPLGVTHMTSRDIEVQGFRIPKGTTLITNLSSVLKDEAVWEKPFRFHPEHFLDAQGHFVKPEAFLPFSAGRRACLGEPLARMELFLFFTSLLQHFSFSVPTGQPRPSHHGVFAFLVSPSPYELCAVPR
# test.description: Inhibition of recombinant CYP2D6 (unknown origin)
pIC50: −log10 of the molar value.
measurement.label: pIC50

Query block: Given the entry O=C(O)c1ccc(-c2c(/C=C/c3ccc4ccccc4n3)nc3c(N4CCOCC4)ccnn23)cc1 , what pIC50 was observed with Cytochrome P450 2D6 (Homo sapiens, UniProt P10635)?
Result block: < 5.00

###

# subject.of.test: High affinity cGMP-specific 3',5'-cyclic phosphodiesterase 9A (Homo sapiens, UniProt O76083)
# Sequence (O76083 whole entry): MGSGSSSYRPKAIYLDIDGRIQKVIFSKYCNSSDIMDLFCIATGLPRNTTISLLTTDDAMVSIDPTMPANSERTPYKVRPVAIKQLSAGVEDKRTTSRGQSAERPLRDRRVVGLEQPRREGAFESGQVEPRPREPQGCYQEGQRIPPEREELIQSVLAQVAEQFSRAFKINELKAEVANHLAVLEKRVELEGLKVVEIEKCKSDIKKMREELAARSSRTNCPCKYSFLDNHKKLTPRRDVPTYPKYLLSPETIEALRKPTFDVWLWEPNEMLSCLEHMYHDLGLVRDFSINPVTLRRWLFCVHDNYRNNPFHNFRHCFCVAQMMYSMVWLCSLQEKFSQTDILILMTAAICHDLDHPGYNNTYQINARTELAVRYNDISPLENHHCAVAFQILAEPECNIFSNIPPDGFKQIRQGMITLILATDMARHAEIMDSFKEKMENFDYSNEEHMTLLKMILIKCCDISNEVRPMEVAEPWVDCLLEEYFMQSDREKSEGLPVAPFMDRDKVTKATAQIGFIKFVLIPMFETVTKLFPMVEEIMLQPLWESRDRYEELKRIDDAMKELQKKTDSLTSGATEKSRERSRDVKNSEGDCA
pIC50: −log10 of the molar value.
measurement.label: pIC50

Query block: Quick one: pIC50 of O=C(O)c1ccc(-c2c(/C=C/c3ccc4ccccc4n3)nc3c(N4CCOCC4)ccnn23)cc1 ?
Result block: < 5.00

###

# test.description: Ratio of drug level in brain to plasma (unknown origin) after 2 hrs
# Assay type: ADME
# test.parameters: brain and plasma; read-out: BPR
# note: exactly 0.3 is not below, so it is not satisfied; use satisfied for Kp at 2 h strictly under it

O=C(O)C1CCN(c2ccc(-c3c([C@H]4C[C@H](c5ccc6ccccc6n5)C4)nc4c(N5CCOCC5)ccnn34)cc2)CC1	satisfied
O=C(O)C1CCN(c2ccc(-c3c(/C=C/c4ccc5ccccc5n4)nc4c(N5CCOCC5)ccnn34)cc2)CC1	satisfied
c1ccc2nc(SCc3nc4c(N5CCOCC5)ccnn4c3-c3ccc(N4CCNCC4)nc3)ccc2c1	not satisfied
NS(=O)(=O)N1CCN(c2c(CSc3ccc4ccccc4n3)nc3c(N4CCOCC4)ccnn23)CC1	not satisfied
Oc1nc(O)c(-c2ccc(-c3c(/C=C/c4ccc5ccccc5n4)nc4c(N5CCOCC5)ccnn34)cc2)o1	satisfied
CS(=O)(=O)NC(=O)c1ccc(-c2c(C#Cc3ccc4ccccc4n3)nc3c(N4CCOCC4)ccnn23)cn1	satisfied

Consider the record given below.
Query block: Find out if reported Kp at 2 h for c1ccc2nc(Cc3nc4c(N5CCOCC5)ccnn4c3-c3ccc(N4CCNCC4)nc3)ccc2c1 is less than 0.3
Result block: not satisfied

###

# subject.of.test: UniProt Q9Y233
# test.description: Inhibition of human recombinant full length PDE10A expressed in sf9 cells by scintillation proximity assay
Measured IC50, listed per entry.
In your response, put the unit directly after the numeric value.

O=C(O)CCc1ccc(-c2c([C@H]3C[C@H](c4ccc5ccccc5n4)C3)nc3c(N4CCOCC4)ccnn23)cc1	2.4 nM

Query block: Entry O=C(O)C1CCN(c2ccc(-c3c([C@H]4C[C@H](c5ccc6ccccc6n5)C4)nc4c(N5CCOCC5)ccnn34)cc2)CC1 : reported IC50 = ?
Result block: 3.2 nM

Query block: # get_value(readout='IC50', item= Oc1nc(O)c(-c2ccc(-c3c(/C=C/c4ccc5ccccc5n4)nc4c(N5CCOCC5)ccnn34)cc2)o1 )
Result block: 8.5 nM

Query block: I am curious: what IC50 value has been reported for O=C(O)c1ccc(-c2c(CCc3ccc4ccccc4n3)nc3c(N4CCOCC4)ccnn23)cc1 ?
Result block: 1.2 nM

Query block: I have this compound here, NS(=O)(=O)N1CCN(c2c(CSc3ccc4ccccc4n3)nc3c(N4CCOCC4)ccnn23)CC1 , and I need its recorded IC50.
Result block: 13.8 nM

###

# subject.of.test: Cytochrome P450 2C19 (Homo sapiens, UniProt P33261)
# Sequence (P33261 whole entry): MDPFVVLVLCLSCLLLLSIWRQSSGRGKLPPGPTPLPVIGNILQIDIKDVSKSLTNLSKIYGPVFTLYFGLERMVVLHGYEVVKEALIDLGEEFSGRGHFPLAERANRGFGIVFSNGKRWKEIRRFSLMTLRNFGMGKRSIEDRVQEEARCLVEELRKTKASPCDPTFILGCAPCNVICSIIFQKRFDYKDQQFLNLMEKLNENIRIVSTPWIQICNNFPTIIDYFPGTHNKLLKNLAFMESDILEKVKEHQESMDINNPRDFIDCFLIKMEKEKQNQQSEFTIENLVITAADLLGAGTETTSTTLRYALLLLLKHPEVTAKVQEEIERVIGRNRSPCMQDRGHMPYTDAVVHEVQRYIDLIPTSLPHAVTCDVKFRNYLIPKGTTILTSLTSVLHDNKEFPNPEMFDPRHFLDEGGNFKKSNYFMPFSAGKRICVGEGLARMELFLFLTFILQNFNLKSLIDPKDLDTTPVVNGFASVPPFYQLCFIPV
# test.description: Inhibition of recombinant CYP2C19 (unknown origin)
measurement.label: IC50

Query block: Look at this compound and give its reported IC50. O=C(O)c1ccc(-c2c(/C=C/c3ccc4ccccc4n3)nc3c(N4CCOCC4)ccnn23)cc1
Result block: > 10 µM

###

# test.description: Half life in rat at 10 mg/kg, iv
# Assay type: ADME, organism-based
# test.parameters: in vivo
measurement.label: half-life

Query block: Recorded half-life for O=C(O)c1ccc(-c2c(/C=C/c3ccc4ccccc4n3)nc3c(N4CCOCC4)ccnn23)cc1 , please?
Result block: 6 to 6.1 h

###

# test.description: Cmax in rat at 10 mg/kg
# Format: ADME, organism-based
# Design: dose 10 mg/kg
# test.parameters: in vivo
measurement.label: Cmax (ng/mL)
Please give a number only; it is taken to be in ng/mL.

Query block: I have this compound here, O=C(O)c1ccc(-c2c(/C=C/c3ccc4ccccc4n3)nc3c(N4CCOCC4)ccnn23)cc1 , and I need its recorded Cmax.
Result block: 2990

###

A collection of compounds and their measured pIC50
# subject.of.test: cAMP and cAMP-inhibited cGMP 3',5'-cyclic phosphodiesterase 10A (Homo sapiens)
# Sequence (Q9Y233 whole entry): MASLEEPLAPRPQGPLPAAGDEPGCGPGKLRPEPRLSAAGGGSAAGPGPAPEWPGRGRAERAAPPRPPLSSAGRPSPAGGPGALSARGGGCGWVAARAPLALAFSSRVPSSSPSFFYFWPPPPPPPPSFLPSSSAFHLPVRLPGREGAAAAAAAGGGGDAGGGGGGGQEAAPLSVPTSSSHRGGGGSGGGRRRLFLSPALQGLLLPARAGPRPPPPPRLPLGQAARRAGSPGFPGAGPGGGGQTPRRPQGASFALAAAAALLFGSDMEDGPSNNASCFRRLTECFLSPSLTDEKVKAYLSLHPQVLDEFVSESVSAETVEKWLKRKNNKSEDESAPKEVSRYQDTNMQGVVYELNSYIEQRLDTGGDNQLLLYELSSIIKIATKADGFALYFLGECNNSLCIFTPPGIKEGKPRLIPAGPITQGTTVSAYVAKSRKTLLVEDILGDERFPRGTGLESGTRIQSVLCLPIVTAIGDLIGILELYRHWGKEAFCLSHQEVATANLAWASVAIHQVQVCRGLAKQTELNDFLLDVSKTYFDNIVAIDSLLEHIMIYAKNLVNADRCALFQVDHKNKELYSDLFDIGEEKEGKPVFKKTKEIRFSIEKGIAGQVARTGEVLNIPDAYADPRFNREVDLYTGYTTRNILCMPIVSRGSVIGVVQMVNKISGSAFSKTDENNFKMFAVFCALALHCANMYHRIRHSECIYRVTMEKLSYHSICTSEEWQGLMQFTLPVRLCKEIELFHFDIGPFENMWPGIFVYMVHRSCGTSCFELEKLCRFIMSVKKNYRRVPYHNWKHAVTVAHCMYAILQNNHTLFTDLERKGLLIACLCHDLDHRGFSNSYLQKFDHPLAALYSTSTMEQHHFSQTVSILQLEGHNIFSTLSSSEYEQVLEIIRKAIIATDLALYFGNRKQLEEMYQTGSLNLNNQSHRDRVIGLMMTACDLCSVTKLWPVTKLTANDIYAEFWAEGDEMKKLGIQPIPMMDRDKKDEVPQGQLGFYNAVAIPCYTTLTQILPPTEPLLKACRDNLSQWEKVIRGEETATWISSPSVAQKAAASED
# test.description: Inhibition of human recombinant full length PDE10A expressed in sf9 cells by scintillation proximity assay
Reminder that pIC50 is minus the log10 of a molar concentration.

O=C(O)c1ccc(-c2c([C@H]3C[C@H](c4ccc5ccccc5n4)C3)nc3c(N4CCOCC4)ccnn23)cc1	9.22
Oc1ncn(-c2ccc(-c3c(/C=C/c4ccc5ccccc5n4)nc4c(N5CCOCC5)ccnn34)cc2)n1	8.13
c1ccc2nc(Cc3nc4c(N5CCOCC5)ccnn4c3-c3ccc(N4CCNCC4)nc3)ccc2c1	6.91
CC(=O)NS(=O)(=O)c1ccc(-c2c(/C=C/c3ccc4ccccc4n3)nc3c(N4CCOCC4)ccnn23)cc1	8.66
O=C(O)C1CCN(c2ccc(-c3c(/C=C/c4ccc5ccccc5n4)nc4c(N5CCOCC5)ccnn34)cc2)CC1	8.36

Query block: Which pIC50 value is on record for CS(=O)(=O)NC(=O)c1ccc(-c2c(C#Cc3ccc4ccccc4n3)nc3c(N4CCOCC4)ccnn23)cn1 ?
Result block: 8.68

Query block: What does the record list as pIC50 for O=c1[nH]c(-c2ccc(-c3c(/C=C/c4ccc5ccccc5n4)nc4c(N5CCOCC5)ccnn34)cc2)no1 ?
Result block: 8.48
